molecular target: human μ opiate receptor (Homo sapiens, UniProt P35372); construct: purchased PerkinElmer Life Sciences, Zaventem, Belgium RB-HOM; host or cells: CHO-K1 cells (membrane preparation); assay: Affinity for the human μ opiate receptor ([3H]-naloxone displacement, CHO-K1 receptor membrane preparation, SPA); format: binding; conditions: test concentration of 1 μM; read-out: μ (binding on the μ opioid receptor, % inhibition)
Sequence (P35372 whole entry): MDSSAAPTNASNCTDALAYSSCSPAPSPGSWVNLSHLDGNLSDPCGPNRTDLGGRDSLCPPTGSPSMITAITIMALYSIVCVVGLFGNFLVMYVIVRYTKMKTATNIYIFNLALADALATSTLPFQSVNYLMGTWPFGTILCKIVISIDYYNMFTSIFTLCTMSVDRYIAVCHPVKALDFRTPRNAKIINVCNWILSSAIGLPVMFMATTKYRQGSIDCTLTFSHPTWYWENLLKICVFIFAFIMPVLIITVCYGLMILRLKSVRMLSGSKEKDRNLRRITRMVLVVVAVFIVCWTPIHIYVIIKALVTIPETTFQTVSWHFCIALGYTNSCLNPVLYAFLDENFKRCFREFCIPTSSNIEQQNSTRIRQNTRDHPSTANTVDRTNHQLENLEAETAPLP

{"columns": ["compound", "uom", "inhibition at 1 µM"],
 "data": [
  ["COc1cc(C)c(S(=O)(=O)N2CCC(OCC(=O)NC3CCC(C(c4cccs4)N(C)C)CC3)C2)c(C)c1C (stereo not drawn)", "%", 96],
  ["Cc1ccc(S(=O)(=O)N2CCC(OCC(=O)NCC3CCC(C(c4cccs4)N(C)C)CC3)C2)cc1 (stereo not drawn)", "%", 93],
  ["COc1ccc(S(=O)(=O)N2CCCCC2COCC(=O)NCC2CCC(C(c3cccs3)N(C)C)CC2)cc1 (stereo not drawn)", "%", 96],
  ["CN(C)C(c1cccs1)C1CCC(CNC(=O)COCCN(C)S(=O)(=O)c2ccc(OC(F)(F)F)cc2)CC1 (stereo not drawn)", "%", 95],
  ["CN(C)C(c1cccs1)C1CCC(CNC(=O)COCC2CCCN(S(=O)(=O)c3ccccc3)C2)CC1 (stereo not drawn)", "%", 92],
  ["COc1cc(C)c(S(=O)(=O)N2CCC(OCC(=O)NCC3CCC(C(c4ccccc4)N(C)C)CC3)C2)c(C)c1 (stereo not drawn)", "%", 87],
  ["Cc1cc(C)c(S(=O)(=O)N2CCC(OCC(=O)NCC3CCC(C(c4ccccc4)N(C)C)CC3)C2)c(C)c1 (stereo not drawn)", "%", 97],
  ["CN(C)C(c1ccccc1)C1CCC(NC(=O)COCCN(C)S(=O)(=O)c2c(F)c(F)c(F)c(F)c2F)CC1 (stereo not drawn)", "%", 89],
  ["CN(C)C(c1ccccc1)C1CCC(NC(=O)COC2CCCCC2N(C)S(=O)(=O)c2ccc(Cl)c(Cl)c2)CC1 (stereo not drawn)", "%", 96],
  ["CN(C)C(c1cccs1)C1CCC(NC(=O)COCCN(C)S(=O)(=O)c2ccc(F)cc2)CC1 (stereo not drawn)", "%", 98],
  ["COc1cc(C)c(S(=O)(=O)N(C)CCOCC(=O)NCCC2CCC(C(c3cccs3)N(C)C)CC2)c(C)c1C (stereo not drawn)", "%", 95],
  ["COc1ccc(S(=O)(=O)N2CCCCC2CCOCC(=O)NC2CCC(C(c3cccc(F)c3)N(C)C)CC2)cc1 (stereo not drawn)", "%", 95],
  ["COc1ccc(S(=O)(=O)N(C)CCOCC(=O)NCCC2CCC(C(c3cccs3)N(C)C)CC2)cc1 (stereo not drawn)", "%", 91],
  ["COc1ccc(S(=O)(=O)N2Cc3ccccc3CC2COCC(=O)NC2CCC(C(c3cccs3)N(C)C)CC2)cc1 (stereo not drawn)", "%", 96],
  ["CN(C)C(c1cccs1)C1CCC(CCNC(=O)COCCN(C)S(=O)(=O)c2ccc(F)cc2)CC1 (stereo not drawn)", "%", 92]
]}
